Test system: BMPR1A
condition.description: concentration: 1 μM, replicates: in singlicate; n = 1;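 further: KINOMEscan kinase panel screen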
Please go through the items and note down their %Inh.
# unit: % | format: bare number

Problem: Complete the entry with %Inh for COc1cccc(C(=O)Nc2cccc(Oc3ccc4nc(NC(=O)C5CC5)cn4n3)c2)c1
Solution: 10

Problem: Complete the entry with %Inh for Cc1occc1-c1ncc(OC[C@@H](N)Cc2c[nH]c3ccccc23)cc1-c1ccc2[nH]nc(C)c2c1.O=C(O)C(F)(F)F
Solution: 0

Problem: Complete the entry with %Inh for CN1CCN(Cc2cccc(-c3ccc4c(Nc5ccc(Oc6ccccc6)cc5)ccnc4c3)c2)CC1
Solution: 0

Problem: Complete the entry with %Inh for O=C(Nc1ccccc1F)NC1CCN(c2ccnc(Nc3ccc(F)cc3)n2)CC1
Solution: 8

Problem: Complete the entry with %Inh for COc1cc(Nc2nccc(-c3c(-c4cccc(NC(=O)c5c(F)cccc5F)c4)nn4ncccc34)n2)cc(OC)c1OC
Solution: 3

Problem: Complete the entry with %Inh for CN(c1ccc(NC(=O)Nc2cc(C(F)(F)F)ccc2F)cc1)c1ccnc(Nc2ccc(S(N)(=O)=O)cc2)n1
Solution: 28

Problem: Complete the entry with %Inh for COC(=O)Nc1nc2ccc(Oc3ccc(NC(=O)Nc4cc(C(F)(F)F)ccc4F)cc3)cc2n1C.Cl
Solution: 0

* * *

Please go through the items and note down their %Inh.
Test system: RIPK4
condition.description: concentration: 1 μM, replicates: in singlicate; n = 1
State the value, then name its unit.

Problem: Complete the entry with %Inh for O=C(Nc1n[nH]c2cc(-c3ccoc3)ccc12)C1CC1
Solution: 17%

Problem: Complete the entry with %Inh for O=C(O)C(F)(F)F.O=C(O)C(F)(F)F.O=c1[nH]ccc2nc(N[C@@H]3CCCNC3)nc(Nc3ccc(S(=O)(=O)N4CCOCC4)cc3)c12
Solution: 95.9%

Problem: Complete the entry with %Inh for CC(=O)N1CCN(c2ccc(Nc3nccc(-c4sc(C(C)C)nc4-c4cccc(NS(=O)(=O)c5cccc(Cl)c5)c4)n3)cn2)CC1
Solution: 0%

Problem: Complete the entry with %Inh for Cc1ccc(C)c(NC(=O)NC2CCN(c3ccnc(Nc4ccc(F)cc4)n3)C2)c1 (stereo not shown)
Solution: 6%

* * *

Please go through the items and note down their %Inh.
Test system: AXL
condition.description: concentration: 1 μM, replicates: in singlicate; n = 1
# unit: % | format: bare number

Problem: Complete the entry with %Inh for COc1cc(Nc2nccc(-c3c(-c4cccc(NC(=O)c5c(F)cccc5F)c4)nn4ncccc34)n2)cc(OC)c1OC [GSK327238]
Solution: 91.3

Problem: Complete the entry with %Inh for CSc1cccc2c(-c3ccncn3)c(-c3ccc(F)cc3)nn12 [GW514786]
Solution: 11

Problem: Complete the entry with %Inh for COc1cc(Nc2nccc(N3CCC(NC(=O)c4cc5ccccc5s4)C3)n2)cc(OC)c1OC (stereo not drawn) [GSK1379760]
Solution: 14

Problem: Complete the entry with %Inh for Cl.Cl.NCC(NC(=O)c1cc(-c2ccccc2)c(-c2ccnc3[nH]ccc23)s1)c1ccccc1 (stereo not drawn) [GSK1321561]
Solution: 46

Problem: Complete the entry with %Inh for CN(C)Cc1ccc(-c2ccc3c(Nc4ccc(Oc5ccccn5)cc4)ccnc3c2)o1 [GW567148]
Solution: 2

Problem: Complete the entry with %Inh for CCn1c(-c2nonc2N)nc2c(C#CC(C)(C)O)ncc(OCCCCN)c21.O=C(O)C(F)(F)F.O=C(O)C(F)(F)F [GSK507274]
Solution: 0

Problem: Complete the entry with %Inh for COc1cc2c(cc1OCCN1CCNCC1)ncc1c3ccc(C#N)cc3[nH]c21
Solution: 32

Problem: Complete the entry with %Inh for CC(C)c1nc(-c2cccc(NS(=O)(=O)c3c(F)cccc3F)c2F)c(-c2ccnc(Nc3ccc(N4CCOCC4)nc3)n2)s1 [GSK2008607]
Solution: 97.5

Problem: Complete the entry with %Inh for Cl.c1ccc(-c2ccc3c(Nc4ccc5[nH]ccc5c4)ccnc3c2)nc1 [GW440138]
Solution: 0

Problem: Complete the entry with %Inh for COc1cc(Nc2nccc(-c3c(-c4cccc(NC(=O)c5c(F)cccc5F)c4)nn4ccccc34)n2)cc(OC)c1OC [GSK323521]
Solution: 80

Problem: Complete the entry with %Inh for COc1cc(Nc2ncc3c(C)nc(-c4cc5ccccc5[nH]4)n3n2)cc(OC)c1OC [GW869516]
Solution: 26

Problem: Complete the entry with %Inh for Cc1ccc(F)c(C(=O)Nc2cccc(-c3nn4ccccc4c3-c3ccnc(Nc4cccc(F)c4)n3)c2)c1F [GSK361061]
Solution: 56

* * *

Test system: MEK2
Construct: gene MAP2K2
condition.description: concentration: 1 μM, replicates: in singlicate; n = 1
experimental.endpoint: %Inh (%)
# unit: % | format: bare number

Problem: Complete the entry with %Inh for COCCOCCOc1cc2ncc3c4ccc(C#N)cc4[nH]c3c2cc1OC
Solution: 80

Problem: Complete the entry with %Inh for CSc1cccc2c(-c3ccncn3)c(-c3ccc(F)cc3)nn12
Solution: 0

Problem: Complete the entry with %Inh for C[C@@H](Oc1cc(-n2cnc3cc(-c4ccnc(NCCS(C)(=O)=O)c4)ccc32)sc1C(N)=O)c1ccccc1Cl
Solution: 0

Problem: Complete the entry with %Inh for CCn1c(-c2nonc2N)nc2c(C#CC(C)(C)O)ncc(OCCCCN)c21.O=C(O)C(F)(F)F.O=C(O)C(F)(F)F
Solution: 34

* * *

Please go through the items and note down their %Inh.
System: WNK3
condition.description: concentration: 1 μM, replicates: in singlicate; n = 1
# unit: % | format: bare number

Problem: Complete the entry with %Inh for COc1cccc(NC(=O)NC2CCN(c3ccnc(Nc4cc(OC)c(OC)c(OC)c4)n3)C2)c1 (stereo not shown)
Solution: 26

Problem: Complete the entry with %Inh for c1ccc(-c2cnc3nccnn23)cc1
Solution: 1

Problem: Complete the entry with %Inh for CN(C)Cc1ccc(-c2ccc3c(Nc4ccc(Oc5ccccn5)cc4)ccnc3c2)o1
Solution: 46

Problem: Complete the entry with %Inh for Cc1ccc(F)c(C(=O)Nc2cccc(-c3nn4ccccc4c3-c3ccnc(Nc4cccc(F)c4)n3)c2)c1F
Solution: 3

Problem: Complete the entry with %Inh for CC(C)c1nc(-c2cccc(NS(=O)(=O)c3c(F)cccc3F)c2F)c(-c2ccnc(Nc3ccc(N4CCOCC4)nc3)n2)s1
Solution: 23

Problem: Complete the entry with %Inh for c1ccc(Oc2ccc(Nc3ccnc4cc(-c5ccc(CNCCN6CCOCC6)o5)ccc34)cc2)nc1
Solution: 43

Problem: Complete the entry with %Inh for c1ccc(-c2n[nH]cc2Nc2ccnc3ccccc23)nc1
Solution: 15

Problem: Complete the entry with %Inh for Cl.c1ccc(-c2ccc3c(Nc4ccc5[nH]ncc5c4)ccnc3c2)nc1
Solution: 19

Problem: Complete the entry with %Inh for CSc1cccc2c(-c3ccncn3)c(-c3ccc(F)cc3)nn12
Solution: 22

Problem: Complete the entry with %Inh for COc1cc(Nc2nccc(N3CCC(NC(=O)c4cc5ccccc5s4)C3)n2)cc(OC)c1OC (stereo not shown)
Solution: 30

Problem: Complete the entry with %Inh for NCCCC(NC(=O)c1cc(Br)c(-c2ccnc3[nH]ccc23)s1)c1ccccc1.O=C(O)C(F)(F)F.O=C(O)C(F)(F)F (stereo not shown)
Solution: 11

Problem: Complete the entry with %Inh for O=C(Nc1n[nH]c2nc(-c3ccc(O)cc3)ccc12)C1CC1
Solution: 0

Problem: Complete the entry with %Inh for COc1cccc(-c2ccc3c(NC(=O)C4CC4)n[nH]c3n2)c1
Solution: 66

Problem: Complete the entry with %Inh for COc1cc2c(cc1OCCN1CCNCC1)ncc1c3ccc(C#N)cc3[nH]c21
Solution: 7

Problem: Complete the entry with %Inh for CCc1ccc(-c2ccc3c(c2)-c2c(cnn2C)S(=O)(=O)N3C)cc1
Solution: 0

Problem: Complete the entry with %Inh for COc1cc(Nc2nccc(N3CCC(NC(=O)Nc4cccc(C(C)=O)c4)C3)n2)cc(OC)c1OC (stereo not shown)
Solution: 59

Problem: Complete the entry with %Inh for COc1cccc(C2=C(Nc3ccc(Cl)c(C(=O)O)c3)C(=O)NC2=O)c1
Solution: 100

Problem: Complete the entry with %Inh for COc1ccc(Nc2nccc(N3CCC(NC(=O)Nc4cccc(OC)c4)C3)n2)cc1 (stereo not shown)
Solution: 19

Problem: Complete the entry with %Inh for C[C@@H]1CC[C@@H](C(=O)Nc2ccccc2)CN1c1cc(-c2ccc3c(N)n[nH]c3c2)nc(N)n1
Solution: 33

* * *

Test system: DMPK2
Construct: gene CDC42BPG
condition.description: concentration: 1 μM, replicates: in singlicate; n = 1
Decide using %Inh alone. Strictly below 4%: TRUE. Equal to or above 4%: FALSE.

Problem: Given the entry O=C(Nc1cccc(-c2nn3ncccc3c2-c2ccnc(Nc3ccccc3)n2)c1)c1c(F)cccc1F [GSK198271] , would its reported %Inh be below 4%?
Solution: FALSE

Problem: Given the entry COc1cc(Nc2nccc(N3CCC(NC(=O)Nc4cccc(C(C)=O)c4)C3)n2)cc(OC)c1OC (stereo not drawn) [GSK1379753] , would its reported %Inh be below 4%?
Solution: FALSE

Problem: Given the entry CCn1c(-c2nonc2N)nc2c(C#CC(C)(C)O)nc(OC[C@H](N)c3ccccc3)cc21 [GSK943949] , would its reported %Inh be below 4%?
Solution: TRUE

Problem: Given the entry O=C(Nc1n[nH]c2nc(-c3ccc(O)cc3)ccc12)C1CC1 [SB-710363] , would its reported %Inh be below 4%?
Solution: TRUE

Problem: Given the entry Cn1cc(-c2ccc3c(c2)CCN3C(=O)Cc2cccc(Cl)c2)c2c(N)ncnc21 [GSK2606590] , would its reported %Inh be below 4%?
Solution: FALSE

Problem: Given the entry COC(=O)Nc1nc2cc(Oc3ccc(NC(=O)Nc4cc(C(F)(F)F)ccc4F)cn3)ccc2[nH]1.Cl.Cl [GW681170] , would its reported %Inh be below 4%?
Solution: TRUE

Problem: Given the entry Clc1ccc(-c2nn3ncccc3c2-c2ccnc(Nc3ccc4c(c3)OCCO4)n2)cc1 [GW829116] , would its reported %Inh be below 4%?
Solution: FALSE

Problem: Given the entry Cl.NC(=O)c1cccc(Nc2nccc(Nc3ccc(Oc4c(Cl)cccc4Cl)c(Cl)c3)n2)c1 [GW659009] , would its reported %Inh be below 4%?
Solution: FALSE

Problem: Given the entry FC(F)(F)c1ccc(/C=C/c2cncnc2Nc2ccc3[nH]c(Cc4ccccc4)nc3c2)cc1 [GW709199] , would its reported %Inh be below 4%?
Solution: TRUE

Problem: Given the entry Nc1n[nH]c2cnc(-c3ccccc3)cc12 [SB-642124] , would its reported %Inh be below 4%?
Solution: TRUE

Problem: Given the entry Cl.Cl.NCC(C(=O)Nc1cc(Br)c(-c2ccnc3[nH]ccc23)s1)c1ccccc1 (stereo not drawn) [GSK1269851] , would its reported %Inh be below 4%?
Solution: TRUE

Problem: Given the entry CNC(=O)c1ccccc1Nc1nc(Nc2ccc(N3CCOCC3)cc2)ncc1Cl.Cl [GSK1576028] , would its reported %Inh be below 4%?
Solution: FALSE

Problem: Given the entry Cn1cc(-c2[nH]c3cc(NC(=O)[C@H](N)C4CCCCC4)cc4c3c2C=NNC4=O)cn1 , would its reported %Inh be below 4%?
Solution: TRUE

Problem: Given the entry C[C@@H]1CC[C@@H](C(=O)Nc2ccccc2)CN1c1cc(-c2ccc3c(N)n[nH]c3c2)nc(N)n1 [GSK2286062] , would its reported %Inh be below 4%?
Solution: TRUE

Problem: Given the entry Oc1cc(Nc2ccnc3cc(I)ccc23)ccc1F [GW552771] , would its reported %Inh be below 4%?
Solution: TRUE

Problem: Given the entry COc1cccc(C2=C(Nc3ccc(Cl)c(C(=O)O)c3)C(=O)NC2=O)c1 [SB-390769] , would its reported %Inh be below 4%?
Solution: TRUE

Problem: Given the entry COCCOCCOc1cc2ncc3c4ccc(C#N)cc4[nH]c3c2cc1OC , would its reported %Inh be below 4%?
Solution: TRUE

Problem: Given the entry CCc1ccc(-c2ccc3c(c2)-c2c(cnn2C)S(=O)(=O)N3C)cc1 , would its reported %Inh be below 4%?
Solution: TRUE

Problem: Given the entry Cc1ccc(C(=O)Nc2ccc(Nc3ccnc4cc(-c5nccs5)ccc34)cc2O)cc1.Cl [GW494702] , would its reported %Inh be below 4%?
Solution: TRUE

Problem: Given the entry CN(C)S(=O)(=O)c1cc(-c2ccc3nccc(-c4cccc(S(N)(=O)=O)c4)c3c2)cnc1N [GSK1669921] , would its reported %Inh be below 4%?
Solution: TRUE

Problem: Given the entry Cl.c1ccc(-c2ccc3c(Nc4ccc5[nH]ccc5c4)ccnc3c2)nc1 [GW440138] , would its reported %Inh be below 4%?
Solution: TRUE

Problem: Given the entry COc1cccc(NC(=O)NC2CCN(c3ccnc(Nc4cc(OC)c(OC)c(OC)c4)n3)C2)c1 (stereo not drawn) [GSK1379763] , would its reported %Inh be below 4%?
Solution: FALSE

Problem: Given the entry CC(=O)Nc1nc2cnc(Nc3cc(NC(=O)c4cccc(C5(C#N)CC5)c4Cl)ccc3C)nc2s1 , would its reported %Inh be below 4%?
Solution: TRUE

Problem: Given the entry Cc1occc1-c1ncc(OC[C@@H](N)Cc2c[nH]c3ccccc23)cc1-c1ccc2[nH]nc(C)c2c1.O=C(O)C(F)(F)F [GSK682037] , would its reported %Inh be below 4%?
Solution: FALSE

Problem: Given the entry CC(C)c1nc(-c2cccc(NS(=O)(=O)c3c(F)cccc3F)c2F)c(-c2ccnc(Nc3ccc(N4CCOCC4)nc3)n2)s1 [GSK2008607] , would its reported %Inh be below 4%?
Solution: FALSE

Problem: Given the entry C[C@@H](Oc1cc(-n2cnc3cc(-c4ccnc(NCCS(C)(=O)=O)c4)ccc32)sc1C(N)=O)c1ccccc1Cl [GSK907232] , would its reported %Inh be below 4%?
Solution: TRUE

Problem: Given the entry Cl.Cl.NCC(NCc1ccc(-c2ccnc3[nH]ccc23)s1)c1ccccc1 (stereo not drawn) [GSK1321565] , would its reported %Inh be below 4%?
Solution: FALSE

Problem: Given the entry Cl.c1ccc(-c2ccc3c(Nc4ccc5[nH]ncc5c4)ccnc3c2)nc1 [GW440137] , would its reported %Inh be below 4%?
Solution: FALSE

Problem: Given the entry COc1cc(Nc2nccc(N3CCC(NC(=O)c4cc5ccccc5s4)C3)n2)cc(OC)c1OC (stereo not drawn) [GSK1379760] , would its reported %Inh be below 4%?
Solution: FALSE

Problem: Given the entry O=C(NC1CCN(c2ccnc(Nc3ccc(F)cc3)n2)C1)c1cc2ccccc2s1 (stereo not drawn) [GSK1379716] , would its reported %Inh be below 4%?
Solution: TRUE

Problem: Given the entry COc1ccc(CNC(=O)NC2CCN(c3ccnc(Nc4ccc(F)cc4)n3)CC2)cc1 [GSK1379788] , would its reported %Inh be below 4%?
Solution: TRUE

Problem: Given the entry COC(=O)Nc1nc2ccc(Oc3ccc(NC(=O)Nc4cc(C(F)(F)F)ccc4F)cc3)cc2n1C.Cl [GW692089] , would its reported %Inh be below 4%?
Solution: TRUE
